TARGET_UNDER_TEST: Mitogen-activated protein kinase 10 (Mus musculus)
TEST_PROTOCOL: JNK3 AlphaScreen Assay (AID 530);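 further: kinase came from lysate of stimulated human HepG2 cells; signal reports phosphorylation of biotinylated GST-cJun 1-79 at Ser73 with 10 µM ATP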
CONDITION_SUMMARY: JNK3 lysate, c-Jun phosphorylation; series mostly up to 57.1 µM
Description: NIH Chemical Genomics Center [NCGC] NIH Molecular Libraries Screening Centers Network [MLSCN] The c-jun N-terminal kinase (JNK) family are serine/threonine protein kinases that phosphorylate c-jun, a component of the transcription factor protein-1 (AP-1). […] A homogeneous AlphaScreen is developed to measure the activity of JNK3. […] The phosphorylation of a biotinylated c-jun substrate by JNK3 can be detected with an antibody raised against phosphorylated c-jun. […]
Records with an inconclusive call do not appear. The source made the active and inactive calls. The call rests on the fitted dose curve; in most records, active means well fitted curve in either direction with a large enough effect (not every such curve was filed as active); inconclusive means small, poorly fitted or top-dose-only effect, or another doubt; inactive means flat fitted curve, though single readings scatter.
PROPERTY_LABEL: outcome

>>> result("C[C@@](N)(C(=O)O)c1ccc(P(=O)(O)O)cc1")
"inactive"
>>> result("O=C(O)/C=C1\\CCCc2ccccc2[C@H]1O")
"inactive"
>>> result("C[C@@H](CCCCC(=O)Nc1ccc(C(F)(F)F)cc1)NCCc1cnc[nH]1")
"inactive"
>>> result("NC1=NCCCC1")
"inactive"
>>> result("Cc1c(C(=O)NN2CCOCC2)nn(-c2ccc(Cl)cc2Cl)c1-c1ccc(I)cc1")
"inactive"
>>> result("N[C@@](C(=O)O)(c1ccc(P(=O)(O)O)cc1)C1CC1")
"inactive"
>>> result("COc1ccccc1NC(=O)Nc1nc(-c2cccnc2)nc2ccccc12")
"inactive"
>>> result("CCN(CC)C[C@@H]1CCCCN1CC(=O)N1c2ccccc2C(=O)Nc2cccnc21")
"inactive"
>>> result("Cn1cnc2c(NC3CCCC3)ncnc21")
"inactive"
>>> result("NC(N)=Nc1ccc(Cl)cc1")
"inactive"
>>> result("N[C@@H]1CCN(O)C1=O")
"inactive"
>>> result("Cc1ccccc1N=C(N)Nc1ccccc1C")
"inactive"
>>> result("OC[C@@H]1O[C@@H](n2cnc3c(NC4CCCC4)ncnc32)[C@H](O)[C@H]1O")
"inactive"
>>> result("CCCn1c(=O)c2[nH]c(-c3ccc(OCC(=O)Nc4ccc(C#N)cc4)cc3)nc2n(CCC)c1=O")
"inactive"
>>> result("c1ccc(N2CCN(CCCOc3ccc4c(c3)OCO4)CC2)cc1")
"inactive"
>>> result("O[C@H](CCCN1CCN(c2ncc(F)cn2)CC1)c1ccc(F)cc1")
"inactive"
>>> result("CC[C@@H]1O[C@]2(C=C[C@@H]1C)C[C@H]1C[C@H](CC=C(C)[C@@H](O[C@@H]3C[C@H](OC)[C@H](O[C@@H]4C[C@H](OC)[C@H](O)[C@H](C)O4)[C@H](C)O3)[C@@H](C)C=CC=C3CO[C@@H]4[C@@H](O)C(C)=C[C@@H](C(=O)O1)[C@]34O)O2")
"inactive"
>>> result("O[C@@H](c1ccccc1)C1CCN(CCc2ccccc2)CC1")
"inactive"
>>> result("N[C@@H](C(=O)O)c1ccc(P(=O)(O)O)cc1")
"inactive"
>>> result("C[C@@H](CC(=O)O)[C@@H](N)C(=O)O")
"inactive"
>>> result("O=C(NC[C@H]1CCCCN1)c1cc(OCC(F)(F)F)ccc1OCC(F)(F)F")
"inactive"
>>> result("CC(=O)OCCNC(=O)c1cccnc1")
"inactive"
>>> result("CCn1ccnc1C[C@@H]1COc2ccccc2O1")
"inactive"
>>> result("N[C@]1(C(=O)O)CCc2cc(C(=O)O)ccc21")
"inactive"
>>> result("N[C@@H](Cn1ccc(=O)n(Cc2ccccc2C(=O)O)c1=O)C(=O)O")
"inactive"
>>> result("CN(CCc1ccc(Cl)c(Cl)c1)C[C@@H](O)COc1ccc(NS(C)(=O)=O)cc1")
"inactive"
>>> result("CC1(C)CO[C@H](CC(=O)O)CN1")
"inactive"
>>> result("CN(C)CCCSC(=N)N")
"inactive"
>>> result("C1CCC(N=C(NC23CC4CC(CC(C4)C2)C3)N2CCOCC2)CC1")
"inactive"
>>> result("C[C@H](N)C(=O)O")
"inactive"
>>> result("COc1cccc(OC)c1OCCNC[C@@H]1COc2ccccc2O1")
"inactive"
>>> result("O=C(O)COc1cccc(-c2ocnc2-c2nc(-c3ccccc3)c(-c3ccccc3)o2)c1")
"inactive"
>>> result("COC(=O)[C@H]1[C@@H]2C[C@H]3c4[nH]c5ccccc5c4CCN3C[C@@H]2CC[C@@H]1O")
"inactive"
>>> result("CCCCCCCCCC(=O)O[C@H](CC(=O)O)C[N+](C)(C)C")
"inactive"
>>> result("CC[C@@](N)(C(=O)O)c1ccc(C(=O)O)cc1")
"inactive"
>>> result("COc1[nH]c2ccc(F)cc2c1C(=O)OCC1CCN(CCNS(C)(=O)=O)CC1")
"inactive"
>>> result("N[C@H](C(=O)O)c1nn[nH]n1")
"inactive"
>>> result("CCCCCCCCCCCCCCCC(=O)O[C@H](CC(=O)O)C[N+](C)(C)C")
"inactive"
>>> result("CC(C)NC[C@@H](O)COc1ccc(CCOCC2CC2)cc1")
"inactive"
>>> result("CC(C)[C@@H]1C(=O)N(S(C)(=O)=O)[C@H]2CCN(C(=O)/C=C\\CN3CCCCC3)[C@@H]12")
"inactive"
>>> result("CN1CCN(CCc2ccc(Cl)c(Cl)c2)CC1")
"inactive"
>>> result("OC[C@H]1O[C@H](n2cnc3c(NC4CCCC4)nc(Cl)nc32)[C@@H](O)[C@@H]1O")
"inactive"
>>> result("C[C@@H]([C@H](O)c1ccc(O)cc1)N1CCC(Cc2ccccc2)CC1")
"inactive"
>>> result("O=C(O)c1c2ccccc2cc2ccccc12")
"inactive"
>>> result("CSc1cc2c(cc1C(F)(F)F)N(C(=O)Nc1cccnc1)CC2")
"inactive"
